Molecular target: JAK1 (Homo sapiens)
Construct: 5 μl of catalytic domain recombinant Kinase enzyme+Tyr peptide substrate (Invitrogen, Calif.)
Sequence (P23458 875-1153 limits assumed): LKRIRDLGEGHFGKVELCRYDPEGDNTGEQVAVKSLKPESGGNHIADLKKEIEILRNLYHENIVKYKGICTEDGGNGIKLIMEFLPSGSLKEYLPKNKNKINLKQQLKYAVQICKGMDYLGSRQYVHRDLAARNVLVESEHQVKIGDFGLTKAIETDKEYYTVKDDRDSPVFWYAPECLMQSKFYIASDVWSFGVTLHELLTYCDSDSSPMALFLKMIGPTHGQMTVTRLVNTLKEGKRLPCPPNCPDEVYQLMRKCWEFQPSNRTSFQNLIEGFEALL
Assay: Z'-LYTE kinase assay, JAK1 tyrosine phosphorylation activity
Conditions: read-out: JAK 1 IC50
pIC50: −log10 of the molar value.
experimental endpoint: pIC50

smiles representation | experimental endpoint | observed measurement
CN(C)C(=O)Nc1cccc(Nc2ncc(C(N)=O)c(NC3CCCC3)n2)c1 | pIC50 | 7.00 to 8.00
CC(=O)Nc1cccc(Nc2cc(N[C@H](C)c3ccccc3)c(C(N)=O)cn2)c1 | pIC50 | 6.00 to 7.00
NC(=O)c1cnc(Nc2cccc(NC(=O)N3CCCC3)c2)nc1NCc1cccc(Cl)c1 | pIC50 | 7.00 to 8.00
COC(=O)Nc1cccc(Nc2ncc(C(N)=O)c(NC3CCCC3)n2)c1 | pIC50 | 7.00 to 8.00
COCC(=O)Nc1cccc(Nc2ncc(C(N)=O)c(NCc3ccccc3)n2)c1 | pIC50 | 7.00 to 8.00
CC(=O)Nc1cccc(Nc2ncc(C(N)=O)c(NCCN3CCCC3)n2)c1 | pIC50 | < 6.00
COCC(=O)Nc1cccc(Nc2ncc(C(N)=O)c(N[C@@H](C)c3ccccc3)n2)c1 | pIC50 | 6.00 to 7.00
CC(=O)Nc1cccc(Nc2ncc(C(N)=O)c(NC[C@H](O)c3ccccc3)n2)c1 | pIC50 | 6.00 to 7.00
